# System: RXF 393 renal
# assay name: NCI tumour cell line growth inhibition, 48 h
measured endpoint: TGI

>>> assay_value("COc1ccc(Cc2cnc(NC(=O)c3sc4ccccc4c3Cl)s2)cc1")
"0.579 µM"
>>> assay_value("CCOC(=O)C(=O)N=Nc1nc2c(O)c3ccccc3c(O)c2s1")
"9.55 µM"
>>> assay_value("O=C(O)C1CCCCN1C(=O)c1ccccc1 (centres undefined)")
"> 100 µM"
>>> assay_value("CC(=O)OC(C)(C)N=Nc1ccc(Br)cc1")
"> 60.4 µM"
>>> assay_value("CC1(C)C2CCC3(OCCO3)C1C1OC12 (centres undefined)")
"> 100 µM"
>>> assay_value("CC1=C(c2cc(C(=O)Nc3ccc(Cl)c(Cl)c3)nc(N)n2)Sc2ccccc2N1")
"> 100 µM"
>>> assay_value("O=C1NC(=O)C(C(c2ccc(Cl)cc2)C2C(=O)NC(=O)NC2=O)C(=O)N1")
"> 100 µM"
>>> assay_value("CC(=O)OC1CCC2(C)C(=CCC3C2CCC2(C)C(C(C)C(=O)O)CCC32)C1 (centres undefined)")
"> 100 µM"
>>> assay_value("CCOC(=O)c1c(C)n2c(=O)cc(C)c3c(OC(C)=O)c(OC(C)=O)cc1c32")
"15.8 µM"

---

# Test system: U251 CNS
Outcome codes: active, inactive

>>> cat("O=C(c1cccs1)c1c(C(F)(F)F)n([O-])c2ccc(F)cc2[n+]1=O")
"inactive"
>>> cat("COC(=O)[C@H](CC(C)C)NC(=O)NC(=O)NC(=O)CI")
"inactive"
>>> cat("CC1=C(/C=C/C(C)=C/C=C/C(C)=C/C(=O)Nc2ccc(O)cc2)C(C)(C)CCC1")
"inactive"
>>> cat("COc1ccc(C2=C(c3cc(OC)c(OC)c(OC)c3)C(=O)CC2)cc1")
"active"
>>> cat("CCOC(=O)C1=C(C)NC2SC(=O)/C(=C\\c3ccccc3)N2C1c1ccccc1 (stereo not given)")
"inactive"
>>> cat("CC1OC(OC2CC(O)C3(CO)C4C(O)CC5(C)C(C6=CC(=O)OC6)CCC5(O)C4CCC3(O)C2)C(O)C(O)C1O (stereo not given)")
"active"
>>> cat("CC(=O)OC[C@]12CC[C@@H]([C@@H](C)C(N)=O)[C@@H]1[C@H]1CC[C@@H]3[C@@]4(C)CC[C@H](OC(C)=O)C(C)(C)[C@@H]4CC[C@@]3(C)[C@]1(C)CC2")
"inactive"
>>> cat("CCCN(CCC)CCCNC(=O)c1cc2c(-c3ccc(OC)c(OC)c3)nn(C)c2s1")
"inactive"
>>> cat("COc1ccc(/C=C/c2cc(N3CCOCC3)c3cc(F)c(F)cc3n2)cc1OC")
"inactive"
>>> cat("CC[C@@H](C(=O)[C@@H](C)[C@@H](O)[C@H](C)[C@@H]1O[C@@H]([C@@H](CC)C(=O)O)CC[C@@H]1C)[C@H]1OC2(C=C[C@@H](O)[C@]3(CC[C@@](C)([C@H]4CC[C@](O)(CC)[C@H](C)O4)O3)O2)[C@H](C)C[C@@H]1C (stereo not given in full)")
"active"
>>> cat("COC(=O)Nc1nc2cc3c(cc2s1)OCCO3")
"inactive"
>>> cat("C#CCNC(=O)CC[C@]1(C)[C@H]2CC[C@@H]3[C@@H]([C@@](C)(O)CCC=C(C)C)CC[C@@]3(C)[C@]2(C)CC[C@H]1C(=C)C")
"inactive"
>>> cat("O=C1c2ccccc2-c2c1c1ccccc1c(=O)n2CCCN1CCN(CCCn2c3c(c4ccccc4c2=O)C(=O)c2ccccc2-3)CC1")
"inactive"
>>> cat("CCCCN(CCCC)CCCN=c1nc2c(c(N)n1-c1ccccc1)c(=S)n(-c1ccccc1)c(=S)n2-c1ccccc1")
"active"
>>> cat("N#CN1CCC[C@H]1C(=O)N1CCc2c(-c3[nH]nc4ncccc34)cccc21")
"active"
